Tested on: Human alphaherpesvirus 3
Assay: The minimum inhibitory concentration was measured on HEL cells against TK-Varicella zoster virus (07/1 strain)
Assay type: functional
readoutLabel: MIC (µg/mL)
Record the value in µg/mL, omitting the unit from your answer.

INSERT INTO results (smi, numericvalue) VALUES
  ('OCCOCN1CNc2c1nc1nc(-c3ccc(Br)cc3)cn1c2O', 125);

Query molecule follows.
Reported MIC for `OCCOCN1CNc2c1nc1nc(-c3ccc(-c4ccccc4)cc3)cn1c2O` was 100

###

System: Human alphaherpesvirus 3
Experiment: The minimum inhibitory concentration was measured on HEL cells against TK-Varicella zoster virus (07/1 strain)
Assay type: functional
Recorded MIC by entry
Form entry: value (µg/mL) — number only.

Solved cases (5 shown):
INSERT INTO measurements (compound, numericvalue) VALUES
  ('O=c1[nH]c(=O)n([C@H]2C[C@H](O)[C@@H](CO)O2)cc1/C=C/Br', 17.5),
  ('Cc1cn2c(O)c3c(nc2n1)N(COCCO)C(Br)N3 (stereo unspecified)', 180),
  ('Nc1nc2c(ncn2COC(CO)CO)c(=O)[nH]1', 1.5),
  ('CC(C)(C)c1cn2c(O)c3c(nc2n1)N(COC(CO)CO)CN3', 50),
  ('OCC(CO)OCN1CNc2c1nc1nc(-c3ccc(-c4ccccc4)cc3)cn1c2O', 25);

Data point: `OCCOCN1CNc2c1nc1nc(-c3ccccc3)cn1c2O` ; MIC = 67

// `OCC(CO)OCN1CNc2c1nc1nc(-c3ccccc3)cn1c2O` : MIC value = 3

For reference, reported MIC for `Cc1cn2c(O)c3c(nc2n1)N(COC(CO)CO)CN3` stands at 15

// sample `CC(C)(C)c1cn2c(O)c3c(nc2n1)N(COCCO)CN3` , its MIC was 40

MIC recorded for this compound, `Nc1nc2c(ncn2COCCO)c(=O)[nH]1` , is 13.7

###

MIC for assorted compounds
Test system: Cytomegalovirus
Test: The minimum inhibitory concentration was measured on HEL cells against Cytomegalovirus virus (Davis strain)
Type: functional
Conditions: Human betaherpesvirus 5

These recorded examples may help you get a feel for the data.
INSERT INTO results (smi, targetorsystem, result) VALUES
  ('Nc1nc2c(ncn2COC(CO)CO)c(=O)[nH]1', 'Cytomegalovirus', '0.9 µg/mL'),
  ('CC(C)(C)c1cn2c(O)c3c(nc2n1)N(COC(CO)CO)CN3', 'Cytomegalovirus', '> 50 µg/mL'),
  ('Cc1cn2c(O)c3c(nc2n1)N(COC(CO)CO)CN3', 'Cytomegalovirus', '> 50 µg/mL'),
  ('O=c1[nH]c(=O)n([C@H]2C[C@H](O)[C@@H](CO)O2)cc1/C=C/Br', 'Cytomegalovirus', '> 20 µg/mL');

Sure, the documented MIC for `Cc1cn2c(O)c3c(nc2n1)N(COCCO)CN3` is > 50 µg/mL

Query `Cc1cnc2nc3c(c(O)n12)NCN3COCCO` yields MIC of > 50 µg/mL

Input `OCCOCN1CNc2c1nc1nc(-c3ccccc3)cn1c2O` . Output MIC: 166 µg/mL

Looking up `OCC(CO)OCN1CNc2c1nc1nc(-c3ccc(-c4ccccc4)cc3)cn1c2O` , I see its MIC listed as > 50 µg/mL

Value of MIC reported for the compound `OCC(CO)OCN1CNc2c1nc1nc(-c3ccccc3)cn1c2O` is 7 µg/mL

###

System: Vaccinia virus
Assay: The minimum inhibitory concentration was measured on E6SM cells against Vaccinia virus
Format: functional
Conditions: Orthopoxvirus vaccinia
Reported MIC values are given for each entry in this list.

Record excerpt, results attached:
INSERT INTO measurements (compound, readoutlabel, result) VALUES
  ('NC(=O)c1ncn([C@@H]2O[C@H](CO)[C@@H](O)[C@H]2O)n1', 'MIC', '28 µg/mL'),
  ('OCCOCN1CNc2c1nc1nc(-c3ccccc3)cn1c2O', 'MIC', '> 100 µg/mL'),
  ('OCC(CO)OCN1CNc2c1nc1nc(-c3ccccc3)cn1c2O', 'MIC', '> 90 µg/mL'),
  ('Cc1cn2c(O)c3c(nc2n1)N(COCCO)CN3', 'MIC', '> 190 µg/mL'),
  ('Cc1cnc2nc3c(c(O)n12)NCN3COCCO', 'MIC', '> 150 µg/mL');

`O=c1[nH]c(=O)n([C@H]2C[C@H](O)[C@@H](CO)O2)cc1/C=C/Br` yielded MIC of 0.22 µg/mL

MIC reported for this compound `OCC(CO)OCN1CNc2c1nc1nc(-c3ccc(-c4ccccc4)cc3)cn1c2O` : > 70 µg/mL

In plain terms, `Nc1nc2c(ncn2COCCO)c(=O)[nH]1` has a documented MIC of > 180 µg/mL

Consider `CC(C)(C)c1cn2c(O)c3c(nc2n1)N(COCCO)CN3` . Its measured MIC is > 250 µg/mL

Notebook: `Nc1nc2c(ncn2COC(CO)CO)c(=O)[nH]1` , MIC read as > 80 µg/mL

The reported value for `O=c1[nH]c(=O)n([C@H]2C[C@H](O)[C@@H](CO)O2)cc1I` in terms of MIC is > 20 µg/mL

Field MIC (entry `OCCOCN1CNc2c1nc1nc(-c3ccc(Br)cc3)cn1c2O` ) reads > 70 µg/mL

Notebook: Cc1cn2c(O)c3c(nc2n1)N(COCCO)C(Br)N3 (stereo unspecified) , MIC read as > 250 µg/mL

Record `CC(C)(C)c1cn2c(O)c3c(nc2n1)N(COC(CO)CO)CN3` , field MIC: > 135 µg/mL

The recorded MIC for entry `OCCOCN1CNc2c1nc1nc(-c3ccc(-c4ccccc4)cc3)cn1c2O` equals > 70 µg/mL

MIC recorded for this compound, `Cc1cn2c(O)c3c(nc2n1)N(COC(CO)CO)CN3` , is > 175 µg/mL

###

System: Human alphaherpesvirus 1
Experiment: The minimum inhibitory concentration was measured on E6SM cells against Herpes simplex virus type 1 (F strain)
Format: functional
readoutLabel: log10 of MIC (log10 of the value in µg/mL)
Hello, just confirming the data are log10 of MIC with units of µg/mL.

INSERT INTO assay_data (molecule, numericvalue) VALUES
  ('OCCOCN1CNc2c1nc1nc(-c3ccccc3)cn1c2O', -0.15);

Would you kindly look at the next entry?
log10 of MIC reported for this molecule `O=c1[nH]c(=O)n([C@H]2C[C@H](O)[C@@H](CO)O2)cc1/C=C/Br` : -2.30

###

Experiment: The minimum inhibitory concentration was measured against Herpes simplex virus type 1 (KOS strain) on E6SM cells
Assay type: functional
Details: Human alphaherpesvirus 1
MIC by entry:
Give the figure together with its unit, number first.

Solved cases below.
INSERT INTO results (molecule, result) VALUES
  ('Cc1cn2c(O)c3c(nc2n1)N(COCCO)CN3', '0.8 µg/mL'),
  ('OCCOCN1CNc2c1nc1nc(-c3ccccc3)cn1c2O', '0.4 µg/mL'),
  ('OCC(CO)OCN1CNc2c1nc1nc(-c3ccccc3)cn1c2O', '0.02 µg/mL'),
  ('Cc1cn2c(O)c3c(nc2n1)N(COCCO)C(Br)N3 (stereo unspecified)', '95 µg/mL'),
  ('Cc1cn2c(O)c3c(nc2n1)N(COC(CO)CO)CN3', '0.015 µg/mL'),
  ('Nc1nc2c(ncn2COCCO)c(=O)[nH]1', '0.02 µg/mL');

Data point: `NC(=O)c1ncn([C@@H]2O[C@H](CO)[C@@H](O)[C@H]2O)n1` ; MIC = 46 µg/mL

// field: MIC; key: `OCCOCN1CNc2c1nc1nc(-c3ccc(-c4ccccc4)cc3)cn1c2O` ; value = 1.3 µg/mL

###

MIC for assorted compounds
Test system: Human alphaherpesvirus 1
Assay: The minimum inhibitory concentration was measured on E6SM cells against Herpes simplex virus type 1 (F strain)
Type: functional
// note: answer is a bare numeric in µg/mL

Past entries and their recorded results:
INSERT INTO measurements (smi, readoutlabel, valueunit, numericvalue) VALUES
  ('CC(C)(C)c1cn2c(O)c3c(nc2n1)N(COCCO)CN3', 'MIC', 'µg/mL', 4),
  ('O=c1[nH]c(=O)n([C@H]2C[C@H](O)[C@@H](CO)O2)cc1I', 'MIC', 'µg/mL', 7),
  ('Cc1cnc2nc3c(c(O)n12)NCN3COCCO', 'MIC', 'µg/mL', 0.1),
  ('CC(C)(C)c1cn2c(O)c3c(nc2n1)N(COC(CO)CO)CN3', 'MIC', 'µg/mL', 0.1),
  ('OCCOCN1CNc2c1nc1nc(-c3ccc(Br)cc3)cn1c2O', 'MIC', 'µg/mL', 2);

Measured MIC, `NC(=O)c1ncn([C@@H]2O[C@H](CO)[C@@H](O)[C@H]2O)n1` : 23

Record summary for `OCCOCN1CNc2c1nc1nc(-c3ccc(-c4ccccc4)cc3)cn1c2O` : reported MIC = 2

Recorded MIC (compound `Cc1cn2c(O)c3c(nc2n1)N(COC(CO)CO)CN3` ): 0.005

// MIC value for `Cc1cn2c(O)c3c(nc2n1)N(COCCO)CN3` : 0.58

MIC reading for `OCC(CO)OCN1CNc2c1nc1nc(-c3ccccc3)cn1c2O` : 0.005

For reference, reported MIC for `Nc1nc2c(ncn2COCCO)c(=O)[nH]1` stands at 0.004

Recorded values, source ChEMBL document CHEMBL1127471.
